# maps each entry to its inhibition in vivo at 0.3 mg/kg
# System: formaldehyde induced nociceptive behaviour
# assay-remarks: Formaldehyde test in mice, second (late) phase
# Assay type: in vivo, mouse
# test-conditions: 0.3 mg/kg body weight po; mouse; read-out: inhibition formaldehyde test (n = 10)
Report as a plain number; the unit % is understood.

>  <molecule>
COC1CCN(c2nc(C(F)(F)F)ccc2CNC(=O)C(C)c2ccc(NS(C)(=O)=O)c(F)c2)CC1 (stereo not shown) [Example 159]

>  <target-under-test>
formaldehyde induced nociceptive behaviour

>  <numeric-value>
10

$$$$
>  <molecule>
CC(C(=O)NCc1ccc(C(F)(F)F)nc1N1CCCC1)c1ccc(NS(C)(=O)=O)c(Br)c1 (stereo not shown) [Example 103]

>  <target-under-test>
formaldehyde induced nociceptive behaviour

>  <numeric-value>
36

$$$$
>  <molecule>
CC(C(=O)NCc1ccc(C(F)(F)F)nc1SC1CCCCC1)c1ccc(NS(C)(=O)=O)c(F)c1 (stereo not shown) [Compound 126]

>  <target-under-test>
formaldehyde induced nociceptive behaviour

>  <numeric-value>
69

$$$$
>  <molecule>
CC(C(=O)NCc1ccc(C(F)(F)F)nc1OC1CCCCC1)c1ccc(NS(C)(=O)=O)c(F)c1 (stereo not shown) [Example 76]

>  <target-under-test>
formaldehyde induced nociceptive behaviour

>  <numeric-value>
12

$$$$
>  <molecule>
CC(C(=O)NCc1ccc(C(C)(C)C)nc1OC1CCCC1)c1ccc(NS(C)(=O)=O)c(F)c1 (stereo not shown) [Compound 234]

>  <target-under-test>
formaldehyde induced nociceptive behaviour

>  <numeric-value>
41

$$$$

## Input Quick one: inhibition in vivo at 0.3 mg/kg of CC(C(=O)NCc1ccc(C(C)(C)C)cc1OCC(C)(C)C)c1ccc(NS(C)(=O)=O)c(F)c1 (stereo not shown) [Example 152] ?
## Output 33

## Input Sample CC(C(=O)NCc1ccc(C(F)(F)F)nc1NC1CCCCC1)c1ccc(NS(C)(=O)=O)c(F)c1 (stereo not shown) [Example 90] — what was its inhibition in vivo at 0.3 mg/kg?
## Output 46

Data origin, for the record: patent US8710233B2
